# assayMethodText: in vivo
# conditionSummary: blood, po
readoutLabel: selectivity ratio
Please give only the number in your answer, with no unit.

Which selectivity ratio is reported for this molecule? `Clc1cccc(Cl)c1NC1=NCCN1`
0.8

====

# assayMethodText: Therapeutic ratio is oral dose producing sedation/reduction in blood pressure
# Format: ADME, tissue-based
readoutLabel: selectivity ratio
Please give only the number in your answer, with no unit.

Which selectivity ratio is reported for this molecule? `Clc1cccc(Cl)c1NC1=NCCN1`
1.83
